Data provenance is patent US20160376333A1.

- ASSAY SYSTEM: T1, Epstein-Barr virus BHRF1 a.a. 1-161 with C-terminal avi-6his tag (Epstein-Barr virus)
- T1 construct: also called EBV BHRF1; BHRF1-biotin
- T1 chain: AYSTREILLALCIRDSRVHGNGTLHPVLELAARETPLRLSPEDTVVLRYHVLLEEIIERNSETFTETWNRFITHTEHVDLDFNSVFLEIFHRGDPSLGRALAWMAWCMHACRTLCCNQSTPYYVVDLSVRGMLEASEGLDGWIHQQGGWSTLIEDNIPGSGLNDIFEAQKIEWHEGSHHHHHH
- PROTOCOL NOTES: yeast display library, FACS sort at 100 nM BHRF1, deep sequencing
Decision: Log2 enrichment ratio beneath -3 log2 gives yes; Log2 enrichment ratio meeting or exceeding -3 log2 gives no.

Strictly below -3 log2 in Log2 enrichment ratio? Index 55 (designed binder) GEEAEKLIKEAKDKFEDLREKAEELLYKMWLIRYLSSKDTKRGEIYTKKWIAIMLMMIGDAFNMALRARLYLEERRKRGEKHEEEAEEKERRARWEQEDAYKKAKKGAKRARLYDKLG
no

Strictly below -3 log2 in Log2 enrichment ratio? Index 34 (designed binder) GKFKKLFENYAELFARWVADKGKKLAEELREKAEKGLKLQKLWLIFTMIWIAIMLMSIGDAFNLALLAELWVQAAKNYGWLRDNEADEAEDRVRKFADEASRRALEKGLEALRKILEG
yes

Strictly below -3 log2 in Log2 enrichment ratio? Index 72 (designed binder) GGSYDDIADLAKKLHKKIAEEAKKKIDELLKEAFEDKPYEEEFAKKMFKWIAIALMAIGDLFNAAELAKRLAEDLKKDNNRDENKAEEAKQRAEQFEKEGAEELAKKGEEAAKKLAGG
yes

Strictly below -3 log2 in Log2 enrichment ratio? Index 45 (designed binder) GYSLDDFLKLAKLLAELLKRFIRKEAERLRELKEWLLDTTLGRLILTLEWIAIELMIIGDIFNAKMLLDKFAKYAEWLGLMKEEEAKQAKKLAKLLLDEVKDEARKKADDGEKFAEEG
no

Strictly below -3 log2 in Log2 enrichment ratio? Index 68 (designed binder) GVSIEWAFDFLENKAEEDAREARRLAQKLAEEFFKHSAREEDRAKLTKKWIAVALMIIGDIFNVEQFTKQQGEEFVKRGLRSEDDFKEYLRKMEEKKEEAERIAKRAKDDMLKARDLG
no

Strictly below -3 log2 in Log2 enrichment ratio? Index 39 (designed binder) GKKYLKAARLALYLLWEAYLRGYLNLLLDELEAEFFDPHDERKIRYTINWIADALMLIGDLFNARLKMEKALWELKKEGKLREEDYEKMERLFRKWMELAFKWLEHFREMAEKAKKKG
no

Strictly below -3 log2 in Log2 enrichment ratio? Index 47 (designed binder) GWSADWIKDQAKELMLRAAEEMKKRADEEEKKFKYKQFTTEFLTKATMRWIALALMAIGDVFNVLMWALEWAKRMAKLNQYRKEELEKAKEEAKKLAEKAARRITEIGREAEQKALKG
yes
